# EXPERIMENTAL TARGET: FGFR3 (UniProt P22607)
# Sequence (P22607 whole entry, looked up): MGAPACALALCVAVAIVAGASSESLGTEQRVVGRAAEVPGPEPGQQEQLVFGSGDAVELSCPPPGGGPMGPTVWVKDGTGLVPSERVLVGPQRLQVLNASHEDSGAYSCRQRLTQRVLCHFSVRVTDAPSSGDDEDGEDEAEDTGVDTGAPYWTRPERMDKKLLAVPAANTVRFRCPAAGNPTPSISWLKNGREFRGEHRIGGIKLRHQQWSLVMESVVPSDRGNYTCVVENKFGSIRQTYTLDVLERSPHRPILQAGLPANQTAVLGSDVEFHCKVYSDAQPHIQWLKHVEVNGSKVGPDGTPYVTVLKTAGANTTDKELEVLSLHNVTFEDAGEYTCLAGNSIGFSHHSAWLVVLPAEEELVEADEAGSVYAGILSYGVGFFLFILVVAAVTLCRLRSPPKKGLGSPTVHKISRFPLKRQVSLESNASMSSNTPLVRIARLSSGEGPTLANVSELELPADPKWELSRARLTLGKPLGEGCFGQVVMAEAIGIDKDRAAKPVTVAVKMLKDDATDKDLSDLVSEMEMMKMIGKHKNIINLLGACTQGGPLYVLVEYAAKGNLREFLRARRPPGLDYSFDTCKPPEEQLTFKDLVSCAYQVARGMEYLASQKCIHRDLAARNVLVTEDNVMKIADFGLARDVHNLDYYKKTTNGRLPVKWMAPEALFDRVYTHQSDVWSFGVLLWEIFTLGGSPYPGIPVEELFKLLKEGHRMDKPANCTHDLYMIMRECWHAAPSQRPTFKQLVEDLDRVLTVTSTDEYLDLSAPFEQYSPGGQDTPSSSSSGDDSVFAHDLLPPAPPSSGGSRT
# TEST DETAILS: phosphorylation enrichment, bacterial display (enrichment ratio); higher = better substrate or ligand; peptides without Tyr show the background;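 further: 11-residue human phosphosite peptides and single-mutation variants displayed on the E. coli surface, counted by deep sequencing, each peptide's frequency after selection divided by its frequency in the unselected input library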;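 further: frequency after pTyr selection over input frequency; kinase dosed for 20-30% of maximal phosphorylation in three min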
Lab note: compare phosphorylation enrichment against 0.7. Equal or greater, write met. Smaller, write not met.

INSERT INTO results (chain, class) VALUES
  ('NYCPGYNNFYN [USH2A_Y467_R464C]', 'met'),
  ('VDYQPYRKHKY [TEX37_Y28]', 'not met'),
  ('LENSTYQYIRV [CRB1_Y760]', 'met'),
  ('LVKDGYQMAQP [CSF1R_Y873]', 'not met'),
  ('KWHREYNFKYV [RICTOR_Y835_S837F]', 'not met'),
  ('LIQRNYKLAAQ [ALPK2_Y1975]', 'met'),
  ('HNELFYEAAEH [VANGL1_Y345_E347A_YF]', 'met'),
  ('LSGVIYVILGK [PMP22_Y153_R157G]', 'met'),
  ('QRKRAYVEIEY [MAK16_Y282]', 'not met'),
  ('DLFRLYVCVKE [ARID1B_Y1091]', 'met'),
  ('EVVGGYSVHNA [MLH1_Y183_R182G]', 'not met'),
  ('YYHCTYKQRMI [CLEC12A_Y242_K244Q]', 'met'),
  ('VPLATYMRIFK [RPL21_Y30_YF]', 'not met');

###

# EXPERIMENTAL TARGET: MERTK (UniProt Q12866)
# Sequence (Q12866 whole entry, looked up): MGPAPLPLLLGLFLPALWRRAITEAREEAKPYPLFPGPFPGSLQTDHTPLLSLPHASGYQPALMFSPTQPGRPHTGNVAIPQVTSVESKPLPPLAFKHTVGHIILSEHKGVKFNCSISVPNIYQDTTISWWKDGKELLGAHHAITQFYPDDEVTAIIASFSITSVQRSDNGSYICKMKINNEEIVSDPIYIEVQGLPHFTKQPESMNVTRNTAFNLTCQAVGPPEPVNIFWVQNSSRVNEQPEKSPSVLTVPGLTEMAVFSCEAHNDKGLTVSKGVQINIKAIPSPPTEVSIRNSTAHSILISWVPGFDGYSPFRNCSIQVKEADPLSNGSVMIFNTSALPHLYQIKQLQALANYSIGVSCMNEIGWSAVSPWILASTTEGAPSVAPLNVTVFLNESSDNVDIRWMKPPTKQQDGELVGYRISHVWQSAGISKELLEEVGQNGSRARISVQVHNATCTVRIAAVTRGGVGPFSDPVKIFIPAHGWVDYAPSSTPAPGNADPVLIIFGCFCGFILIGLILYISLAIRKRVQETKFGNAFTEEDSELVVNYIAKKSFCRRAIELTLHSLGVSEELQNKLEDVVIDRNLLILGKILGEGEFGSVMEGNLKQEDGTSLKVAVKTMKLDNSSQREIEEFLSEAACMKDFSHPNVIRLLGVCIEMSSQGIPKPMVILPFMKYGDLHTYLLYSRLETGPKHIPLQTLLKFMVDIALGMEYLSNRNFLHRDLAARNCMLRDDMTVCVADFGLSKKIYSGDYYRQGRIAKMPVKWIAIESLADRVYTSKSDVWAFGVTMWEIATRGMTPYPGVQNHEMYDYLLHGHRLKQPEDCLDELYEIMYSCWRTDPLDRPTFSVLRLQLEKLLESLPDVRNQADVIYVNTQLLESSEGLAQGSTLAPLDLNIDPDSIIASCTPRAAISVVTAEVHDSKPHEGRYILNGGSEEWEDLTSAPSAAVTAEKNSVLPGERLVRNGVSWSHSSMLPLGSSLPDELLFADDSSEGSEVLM
# TEST DETAILS: phosphorylation enrichment, bacterial display (enrichment ratio); higher = better substrate or ligand; peptides without Tyr show the background
Lab note: compare phosphorylation enrichment against 0.5. Equal or greater, write Criterion met. Smaller, write Criterion not met.

INSERT INTO results (chain, class) VALUES
  ('NFDLDYDSVQP [MYC_Y16_YF]', 'Criterion not met'),
  ('RRGMPYGGCGD [TGM1_Y312_R315C]', 'Criterion not met'),
  ('QRALLYEDALF [UNC13D_Y56_YF]', 'Criterion met'),
  ('HDRNTYEKFLE [TF_Y666_G671E_YF]', 'Criterion met'),
  ('PTQLPYDHKWK [KIT_Y578_E583K]', 'Criterion not met'),
  ('RPSRQYATRDV [SCAMP3_Y35_L38R]', 'Criterion not met'),
  ('DTNIAYWLHPR [POMT1_Y581]', 'Criterion met'),
  ('LAEMNYVHQDL [EPHB1_Y740_R743Q]', 'Criterion not met'),
  ('AKRKGYDMQVD [NEB_Y2770_R2773Q]', 'Criterion not met'),
  ('SWVVPYEPPEV [TP53_Y220_V216W]', 'Criterion not met');

###

# Tested on: AncSZ
# TEST DETAILS: phosphorylation enrichment, bacterial display (enrichment ratio); higher = better substrate or ligand; peptides without Tyr show the background
Lab note: compare phosphorylation enrichment against 0.7. Equal or greater, write criterion met. Smaller, write criterion not met.

INSERT INTO results (chain, class) VALUES
  ('KVGNEYITKGQ [MYH7_Y410_V411I]', 'criterion not met'),
  ('TGDFGYRTPGF [TNS2_Y668_A670T_YF]', 'criterion not met'),
  ('MALDIYRASFF [ALK_Y1278_R1275L_YF]', 'criterion met'),
  ('HSLRDYKEALM [ADA2_Y337_H335R]', 'criterion met'),
  ('TTKGSYSLFVR [HCK_Y180_S183Y_YF]', 'criterion met'),
  ('QDEHGYIFRCF [HSPB1_Y133_S135F]', 'criterion met'),
  ('DGQSVYKLTDF [TBK1_Y153]', 'criterion met'),
  ('DTNIAYWLHPR [POMT1_Y581]', 'criterion met'),
  ('PLEGEYFTLQI [TP53_Y327_D324E]', 'criterion met'),
  ('SSREEYFIGGG [GYPC_Y126_K124E]', 'criterion met'),
  ('TTKAKYKTPTY [PLD2_Y573]', 'criterion not met'),
  ('LEHCQYVTEKV [ALDOB_Y204]', 'criterion met');
